Below, each entry is listed with its recorded IC50.
# Tgt: Protein deacetylase HDAC6 (Homo sapiens)
# Sequence (Q9UBN7 whole entry): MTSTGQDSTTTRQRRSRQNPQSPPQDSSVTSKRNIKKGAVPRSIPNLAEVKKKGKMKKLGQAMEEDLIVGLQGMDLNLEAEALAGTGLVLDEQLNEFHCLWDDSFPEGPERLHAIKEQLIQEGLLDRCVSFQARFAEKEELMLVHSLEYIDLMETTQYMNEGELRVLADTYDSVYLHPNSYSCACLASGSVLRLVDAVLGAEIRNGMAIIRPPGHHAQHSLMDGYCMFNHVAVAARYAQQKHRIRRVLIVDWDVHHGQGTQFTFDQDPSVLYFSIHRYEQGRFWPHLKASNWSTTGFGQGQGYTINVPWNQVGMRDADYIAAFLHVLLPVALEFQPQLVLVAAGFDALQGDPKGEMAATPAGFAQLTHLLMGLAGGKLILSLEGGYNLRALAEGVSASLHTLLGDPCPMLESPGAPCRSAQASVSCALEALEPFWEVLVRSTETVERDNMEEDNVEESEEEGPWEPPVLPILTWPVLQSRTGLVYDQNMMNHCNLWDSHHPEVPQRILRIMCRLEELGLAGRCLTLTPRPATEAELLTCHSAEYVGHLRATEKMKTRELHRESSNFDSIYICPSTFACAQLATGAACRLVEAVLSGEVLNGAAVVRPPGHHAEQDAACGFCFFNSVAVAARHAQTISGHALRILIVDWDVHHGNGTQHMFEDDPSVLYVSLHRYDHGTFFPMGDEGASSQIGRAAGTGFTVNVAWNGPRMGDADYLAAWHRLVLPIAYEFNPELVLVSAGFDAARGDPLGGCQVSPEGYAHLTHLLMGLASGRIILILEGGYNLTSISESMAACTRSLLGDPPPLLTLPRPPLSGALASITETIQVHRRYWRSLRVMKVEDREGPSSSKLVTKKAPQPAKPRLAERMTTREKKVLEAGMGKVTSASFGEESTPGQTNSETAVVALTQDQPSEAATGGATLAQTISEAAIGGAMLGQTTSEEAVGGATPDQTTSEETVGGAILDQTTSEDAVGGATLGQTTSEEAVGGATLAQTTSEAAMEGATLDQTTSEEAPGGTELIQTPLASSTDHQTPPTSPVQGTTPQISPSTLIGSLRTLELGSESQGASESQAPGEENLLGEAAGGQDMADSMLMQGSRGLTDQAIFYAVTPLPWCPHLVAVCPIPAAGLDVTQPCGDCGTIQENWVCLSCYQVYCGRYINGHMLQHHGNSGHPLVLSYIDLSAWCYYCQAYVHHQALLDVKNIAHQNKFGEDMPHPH
Please don't drop the unit; write it after the number.

INSERT INTO results (molecule, tgt, value_reported) VALUES
  ('O=C(NO)c1ccc(NCc2csc3ccccc23)cc1', 'Protein deacetylase HDAC6 (Homo sapiens)', '1400 nM');

Now examine the next entry.
Reported IC50 for Protein deacetylase HDAC6 (Homo sapiens), given CC(C)[C@@H](C#Cc1ccc(C(=O)NO)cc1)NC(=O)C1Cc2ccccc2O1 (some centres not stated) ? 417 nM

###

# Tgt: UniProtKB Q9BY41
# Sequence (Q9BY41 whole entry): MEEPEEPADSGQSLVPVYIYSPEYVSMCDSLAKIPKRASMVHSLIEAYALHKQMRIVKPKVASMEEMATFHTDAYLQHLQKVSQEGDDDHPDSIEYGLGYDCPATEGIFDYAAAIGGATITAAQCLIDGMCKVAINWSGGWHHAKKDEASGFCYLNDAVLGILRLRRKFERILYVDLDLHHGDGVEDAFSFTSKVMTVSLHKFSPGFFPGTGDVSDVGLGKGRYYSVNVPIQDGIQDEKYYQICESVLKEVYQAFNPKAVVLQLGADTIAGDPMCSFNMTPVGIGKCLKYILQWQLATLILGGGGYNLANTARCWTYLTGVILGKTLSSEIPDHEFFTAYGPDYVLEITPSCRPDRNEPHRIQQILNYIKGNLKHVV
Endpoint name: IC50 (nM)
Please state the figure in nM; there is no need to write the unit.

What value of IC50 has been recorded for this entry: O=C(O)CC[C@@H](NC(=O)Cc1ccc(Br)cc1)C(=O)NCc1ccc([N+](=O)[O-])cc1 2890
